Give measured residual activity for each item. Keep answers brief.
- Measured Target: Solute carrier organic anion transporter family member 1B1 (Homo sapiens)
- Sequence (Q9Y6L6 whole entry): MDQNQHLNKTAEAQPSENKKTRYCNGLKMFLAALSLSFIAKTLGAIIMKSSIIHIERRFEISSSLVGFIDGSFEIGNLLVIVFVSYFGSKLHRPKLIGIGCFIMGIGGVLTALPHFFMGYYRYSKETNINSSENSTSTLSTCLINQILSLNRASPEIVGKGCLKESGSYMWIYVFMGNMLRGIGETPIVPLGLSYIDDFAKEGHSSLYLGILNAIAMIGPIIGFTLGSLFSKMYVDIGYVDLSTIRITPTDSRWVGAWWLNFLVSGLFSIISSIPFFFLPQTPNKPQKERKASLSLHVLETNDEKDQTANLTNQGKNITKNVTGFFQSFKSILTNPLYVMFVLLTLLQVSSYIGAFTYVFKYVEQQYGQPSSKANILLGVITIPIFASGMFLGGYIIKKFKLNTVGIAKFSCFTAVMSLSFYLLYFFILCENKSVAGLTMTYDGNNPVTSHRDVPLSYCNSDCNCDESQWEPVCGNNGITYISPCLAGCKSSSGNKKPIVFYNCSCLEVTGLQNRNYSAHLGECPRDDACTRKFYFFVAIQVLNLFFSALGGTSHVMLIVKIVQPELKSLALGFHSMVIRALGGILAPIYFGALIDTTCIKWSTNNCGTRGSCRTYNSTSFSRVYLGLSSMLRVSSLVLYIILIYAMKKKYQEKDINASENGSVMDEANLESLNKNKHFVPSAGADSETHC
- Assay Setup: chinese hamster, cho, 10 µM
Write the number in % without appending the unit.

Data request: # lookup: residual activity of Cl.Cl.Fc1ccc([C@@H]2CCNC[C@H]2COc2ccc3c(c2)OCO3)cc1.Fc1ccc([C@@H]2CCNC[C@H]2COc2ccc3c(c2)OCO3)cc1.O [PAROXETINE HYDROCHLORIDE]
Data returned: 96.74

Data request: # lookup: residual activity of "COc1cc2c(cc1O)C[C@H]1c3c(cc(O)c(OC)c3-2)CCN1C"
Data returned: 47.95

Data request: # lookup: residual activity of "[O-][n+]1ccccc1[S][Zn][S]c1cccc[n+]1[O-]"
Data returned: 92.52

Data request: # lookup: residual activity of "CC1(C)CC[C@]2(C)CC[C@]3(C)C(=CC[C@@H]4[C@@]5(C)CC[C@H](O)C(C)(C)[C@@H]5CC[C@]43C)[C@@H]2C1"
Data returned: 65.86

* * *

Give measured residual activity for each item. Keep answers brief.
- Measured Target: UniProt:Q9NPD5
- Sequence (Q9NPD5 whole entry): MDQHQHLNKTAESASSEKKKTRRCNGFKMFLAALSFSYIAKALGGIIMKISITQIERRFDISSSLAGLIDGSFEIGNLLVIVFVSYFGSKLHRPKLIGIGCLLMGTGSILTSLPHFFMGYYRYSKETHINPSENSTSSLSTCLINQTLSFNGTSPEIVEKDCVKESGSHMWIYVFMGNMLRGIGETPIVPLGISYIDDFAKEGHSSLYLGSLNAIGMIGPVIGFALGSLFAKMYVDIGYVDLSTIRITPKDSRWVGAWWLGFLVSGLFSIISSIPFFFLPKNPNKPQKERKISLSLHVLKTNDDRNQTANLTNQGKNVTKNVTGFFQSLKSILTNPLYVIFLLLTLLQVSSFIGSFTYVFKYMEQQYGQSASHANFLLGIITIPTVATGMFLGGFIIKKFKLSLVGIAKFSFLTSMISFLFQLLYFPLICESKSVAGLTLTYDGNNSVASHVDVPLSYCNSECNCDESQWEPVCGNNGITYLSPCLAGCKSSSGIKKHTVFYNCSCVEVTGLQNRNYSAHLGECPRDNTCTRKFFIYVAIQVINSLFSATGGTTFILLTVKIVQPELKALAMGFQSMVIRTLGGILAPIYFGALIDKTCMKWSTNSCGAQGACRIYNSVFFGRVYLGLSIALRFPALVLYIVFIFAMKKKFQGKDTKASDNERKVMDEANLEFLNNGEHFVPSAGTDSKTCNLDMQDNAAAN
- Assay Setup: chinese hamster, cho, 10 µM
Write the number in % without appending the unit.

Data request: # lookup: residual activity of C[C@]12CC[C@@H](O)C[C@H]1CC[C@@H]1[C@@H]2C(=O)C[C@@]2(C)[C@H]1CC[C@]2(O)C(=O)CO [TETRAHYDROCORTISONE]
Data returned: 99.93

Data request: # lookup: residual activity of "C[C@@H]1O[C@@H](O[C@H]2[C@H](Oc3cc(O)c4c(=O)cc(-c5ccc(O)cc5)oc4c3)O[C@H](CO)[C@@H](O)[C@@H]2O)[C@H](O)[C@H](O)[C@H]1O"
Data returned: 203.1

Data request: # lookup: residual activity of CN[C@@H]1[C@H](O[C@H]2[C@H](O[C@H]3[C@H](O)[C@@H](O)[C@H](NC(=N)N)[C@@H](O)[C@@H]3NC(=N)N)O[C@@H](C)[C@]2(O)CO)O[C@@H](CO)[C@H](O)[C@H]1O.CN[C@@H]1[C@H](O[C@H]2[C@H](O[C@H]3[C@H](O)[C@@H](O)[C@H](NC(=N)N)[C@@H](O)[C@@H]3NC(=N)N)O[C@@H](C)[C@]2(O)CO)O[C@@H](CO)[C@H](O)[C@H]1O.O=S(=O)(O)O.O=S(=O)(O)O.O=S(=O)(O)O [DIHYDROSTREPTOMYCIN SULFATE]
Data returned: 99.04

Data request: # lookup: residual activity of "CSCC[C@H](NC=O)C(=O)N[C@@H](CC(C)C)C(=O)N[C@@H](Cc1ccccc1)C(=O)O"
Data returned: 120.4

Data request: # lookup: residual activity of "C[C@]12CC[C@@H]3c4ccc(OCc5ccccc5)cc4CC[C@H]3[C@@H]1C[C@@H](O)[C@@H]2O"
Data returned: 102.7

* * *

- Measured Target: Solute carrier organic anion transporter family member 1B1 (Homo sapiens)
- Assay Setup: chinese hamster, cho, 10 µM
Measure: residual activity
Give the value; after it, write the unit.

Data request: # lookup: residual activity of O=c1cc(-c2ccc(O)cc2)oc2cc(O)cc(O)c12 [APIGENIN]
Data returned: 84.2%

Data request: # lookup: residual activity of CNNC.Cl [1,2-DIMETHYLHYDRAZINE HYDROCHLORIDE]
Data returned: 108.5%

Data request: # lookup: residual activity of O=c1c(-c2cc(O)c(O)c(O)c2)coc2cc(O)c(O)c(O)c12 [IRIGENOL]
Data returned: 71.59%

Data request: # lookup: residual activity of CC1(C)S[C@@H]2[C@H](NC(=O)[C@H](NC(=O)N3CCNC3=O)c3ccccc3)C(=O)N2[C@H]1C(=O)[O-].[Na+] [AZLOCILLIN SODIUM]
Data returned: 96.91%

Data request: # lookup: residual activity of "N=C(N)c1ccc(OCCCCCOc2ccc(C(=N)N)cc2)cc1.O=S(=O)(O)CCO"
Data returned: 99.74%

Data request: # lookup: residual activity of O=C(O)c1c2ccccc2cc2ccccc12 [ANTHRACENE-9-CARBOXYLIC ACID]
Data returned: 95.94%

Data request: # lookup: residual activity of Cc1nccc2c1[nH]c1ccccc12 [HARMAN]
Data returned: 81.51%

Data request: # lookup: residual activity of CC[C@H]1OC(=O)[C@H](C)[C@@H](O[C@H]2C[C@@](C)(OC)[C@@H](O)[C@H](C)O2)[C@H](C)[C@@H](O[C@@H]2O[C@H](C)C[C@H](N(C)C)[C@H]2O)[C@](C)(O)C[C@@H](C)/C(=N\OCOCCOC)[C@H](C)[C@@H](O)[C@]1(C)O [ROXITHROMYCIN]
Data returned: 91.33%

Data request: # lookup: residual activity of COC(=O)c1c(OC)cc2c(c1C)Oc1c(Cl)c(OC(C)=O)c(Cl)c(C)c1C(=O)O2 [GANGLEOIDIN ACETATE]
Data returned: 34.6%

Data request: # lookup: residual activity of COc1cc(N)c(Cl)cc1C(=O)NC1CCN(Cc2ccccc2)CC1.O=C(O)/C=C\C(=O)O [CLEBOPRIDE MALEATE]
Data returned: 84.15%

Data request: # lookup: residual activity of CCCC(C(=O)OCCN(CC)CC)(c1ccccc1)c1ccccc1.Cl [PROADIFEN HYDROCHLORIDE]
Data returned: 36.21%

Data request: # lookup: residual activity of CC[C@H](CC[C@@H](C)[C@H]1CC[C@H]2[C@@H]3CC[C@H]4C[C@@H](O)CC[C@]4(C)[C@H]3CC[C@]12C)C(C)C [STIGMASTANOL]
Data returned: 77.21%

Data request: # lookup: residual activity of Cc1ncc([N+](=O)[O-])n1CCO [METRONIDAZOLE]
Data returned: 102.6%

Data request: # lookup: residual activity of NC(=O)c1cnccn1 [PYRAZINAMIDE]
Data returned: 79.24%

Data request: # lookup: residual activity of CCC(=O)NCC[C@@H]1CCc2ccc3c(c21)CCO3 [RAMELTEON]
Data returned: 127.6%

Data request: # lookup: residual activity of CC1(C)C(C(Cl)Cl)C2(Cl)C(Cl)C(Cl)C1(Cl)C2(Cl)Cl (configuration not stated) [TOXAPHENE]
Data returned: 111.3%

Data request: # lookup: residual activity of CCCc1cc(=O)[nH]c(=S)[nH]1 [PROPYLTHIOURACIL]
Data returned: 79.91%

Data request: # lookup: residual activity of COC1=CC(=O)C(O)=C/C1=C\C=C\c1ccccc1 [OBTUSAQUINONE]
Data returned: 60.32%

Data request: # lookup: residual activity of "C[C@H]1[C@H](C)CC[C@@]23CC[C@]4(C)[C@@](C=C[C@@H]5[C@@]6(C)CC[C@H](O)C(C)(C)[C@@H]6CC[C@]54C)(OC2=O)[C@H]13"
Data returned: 114.4%

Data request: # lookup: residual activity of O=c1c(-c2ccc(O)cc2)coc2cc(O)cc(O)c12 [GENISTEIN]
Data returned: 95.56%

Data request: # lookup: residual activity of CCCCCCCCCc1ccc(O)cc1 [4-NONYLPHENOL]
Data returned: 140.8%

Data request: # lookup: residual activity of C/C=C(/C)C(=O)O[C@@H]1c2c(ccc3ccc(=O)oc23)OC(C)(C)[C@@H]1OC(C)=O [PTERYXIN]
Data returned: 84.8%

Data request: # lookup: residual activity of C=C(C)[C@H]1CN[C@H](C(=O)O)[C@H]1CC(=O)O [KAINIC ACID]
Data returned: 106.3%

Data request: # lookup: residual activity of COc1ccc2c(c1)[nH]c1c(C)nccc12 [HARMINE]
Data returned: 105.3%

Data request: # lookup: residual activity of O=C(/C=C/c1ccc(O)c(O)c1)O[C@H](Cc1ccc(O)c(O)c1)C(=O)O [ROSMARINIC ACID]
Data returned: 103.9%

Data request: # lookup: residual activity of CC1(C)S[C@@H]2[C@H](NC(=O)C(C(=O)[O-])c3ccccc3)C(=O)N2[C@H]1C(=O)[O-].[Na+].[Na+] (some centres not stated) [CARBENICILLIN DISODIUM]
Data returned: 108.5%

Data request: # lookup: residual activity of Oc1ccc(O)cc1 [HYDROQUINONE]
Data returned: 112.9%

Data request: # lookup: residual activity of C[C@@H]1O[C@@H](O[C@H]2C[C@@H](O)[C@]3(CO)[C@H]4[C@H](O)C[C@]5(C)[C@@H](C6=CC(=O)OC6)CC[C@]5(O)[C@@H]4CC[C@]3(O)C2)[C@H](O)[C@H](O)[C@H]1O [OUABAIN]
Data returned: 108.1%

Data request: # lookup: residual activity of CO[C@H]1C[C@H](O[C@@H]2/C(C)=C/C[C@@H]3C[C@@H](C[C@]4(CC[C@H](C)[C@@H](C5CCCCC5)O4)O3)OC(=O)[C@@H]3C=C(C)/C(=N/O)[C@H]4OC/C(=C\C=C\[C@@H]2C)[C@]43O)O[C@@H](C)[C@@H]1O [SELAMECTIN]
Data returned: 98.02%

Data request: # lookup: residual activity of COc1c2ccccc2nc2occc12 [DICTAMNINE]
Data returned: 151.5%

Data request: # lookup: residual activity of COP(=S)(OC)Oc1ccc([N+](=O)[O-])cc1 [METHYL PARATHIONE]
Data returned: 107.9%

Data request: # lookup: residual activity of CCCCN(CCCC)CCCOC(=O)c1ccc(N)cc1 [BUTACAINE]
Data returned: 93.87%
